# method-notes: Pharmacokinetics in MiaPaca 2 tumor-bearing mice (plasma, tumor)
# Assay type: in vivo
# test-parameters: female, mouse, po, plasma, 6 mg/kg p.o., read-out: T1/2 (hr) Plasma (converted)
reported-endpoint: half-life (h)
Report as a plain number; the unit h is understood.

Entry under review: C=CC(=O)N1C[C@H](C)N(c2nc(=O)n(-c3c(SC)ccnc3C(C)C)c3nc(-c4c(N)ccc(Cl)c4F)c(Cl)cc23)C[C@H]1C (single isomer, unassigned) . Reported half-life?
0.5

---

# method-notes: in vivo
# test-parameters: male, Balb/c, mouse, po, 10 mg/kg
reported-endpoint: AUC(0-inf)
Note to self: number, then unit, no commentary.

Record excerpt, results attached:
{"compound": "C=CC(=O)N1C[C@H](C)N(c2nc(=O)n(-c3c(SC)ccnc3C(C)C)c3nc(-c4c(N)ccc(Cl)c4F)c(Cl)cc23)C[C@H]1C (single isomer, unassigned) [Embodiment 165-1]", "AUC(0-inf)": "347 ng·h/mL"}
{"compound": "C=CC(=O)N1C[C@H](C)N(c2nc(=O)n(-c3c(SC)ccnc3C(C)C)c3nc(-c4c(O)cccc4F)c(F)cc23)C[C@H]1C [Embodiment 114]", "AUC(0-inf)": "1290 ng·h/mL"}

Now turn to the next compound.
Requested read-out: AUC(0-inf). Entry: C=CC(=O)N1C[C@H](C)N(c2nc(=O)n(-c3c(SC)ccnc3C(C)C)c3nc(-c4c(O)cccc4F)c(F)cc23)C[C@H]1C (single isomer, unassigned) [Embodiment 114-1]
1370 ng·h/mL
